- Test system: E. coli TESEC Mtb Alr
- Assay Procedure: growth (OD600 after 10 h); higher = more growth (less inhibition)
- Protocol Conditions: arabinose 1000 nM; compound 0.1 mM; raw OD600 reference: median of DMSO wells 0.294, cell-free background 0.041
Structures can show the parent of a compound that is named as a salt.
This section presents molecules with their documented growth values.
Field format: numeric only.

Entry Cc1c(Nc2ncccc2C(=O)O)cccc1C(F)(F)F , growth reported as 0.084

Entry Cn1ccnc1S , growth reported as 0.32

Entry Nc1nc2n[nH]nc2c(=O)[nH]1 , growth reported as 0.241

Entry N[C@@H](Cc1ccc(O)c(O)c1)C(=O)O , growth reported as 0.275

Entry CN(C)CCCN1c2ccccc2CCc2ccc(Cl)cc21 [Clomipramine hydrochloride] , growth reported as 0.0398

Entry CC(C[N+](C)(C)C)OC(N)=O (stereo not given) [Bethanechol chloride] , growth reported as 0.283

Entry CCCc1ncc(C[n+]2ccccc2C)c(N)n1 [Amprolium hydrochloride] , growth reported as 0.284

Entry C[C@H](CCC(=O)O)[C@H]1CC[C@H]2[C@@H]3[C@H](O)C[C@@H]4C[C@H](O)CC[C@]4(C)[C@H]3CC[C@]12C , growth reported as 0.263

Entry CC(O)(P(=O)(O)O)P(=O)(O)O [Etidronic acid, disodium salt] , growth reported as 0.331

Entry CC(=O)Oc1ccccc1C(=O)Oc1ccccc1C(=O)O , growth reported as 0.275

* * *

This section presents compounds with their documented growth values.
- Tested on: E. coli TESEC Mtb Asd
- Assay Procedure: growth (OD600 after 10 h); higher = more growth (less inhibition)
- Protocol Conditions: arabinose induction (level): Low; compound 0.1 mM; raw OD600 reference: median of DMSO wells 0.417, cell-free background 0.041
Counter-ions that a name gives are not always drawn.
Field format: numeric only.

Compound	growth
C=CC[N@@+]12CC[C@@]34c5ccccc5N5/C=C6/[C@H]7C[C@H]8[C@@]9(CC[N@@+]8(CC=C)C/C7=C/CO)c7ccccc7N(/C=C(/[C@@H](C[C@@H]31)/C(=C\CO)C2)[C@H]54)[C@@H]69 [Alcuronium chloride]	0.184
OCCN1CCN(CCCN2c3ccccc3Sc3ccc(C(F)(F)F)cc32)CC1 [Fluphenazine dihydrochloride]	0.0515
C[C@@H](O)[C@H]1C(=O)N2C(C(=O)O)=C(S[C@@H]3CN[C@H](C(=O)N(C)C)C3)[C@H](C)[C@H]12	0.0552

Let us examine a further case.
Summary line: C[C@@H](c1ncncc1F)[C@](O)(Cn1cncn1)c1ccc(F)cc1F , E. coli TESEC Mtb Asd, reported growth = 0.285

* * *

- Tested on: E. coli TESEC Mtb Alr
- Assay Procedure: growth (OD600 after 10 h); higher = more growth (less inhibition)
- Protocol Conditions: arabinose 10000000 nM; compound 0.1 mM; raw OD600 reference: median of DMSO wells 0.146, cell-free background 0.041
Counter-ions that a name gives are not always drawn.
Quantity: growth
Field format: numeric only.

Please review the entries below; each comes with its answer.
Compound	Experimental Target	growth
CN1CCC[C@@H]1CCO[C@](C)(c1ccccc1)c1ccc(Cl)cc1 [Clemastine fumarate]	E. coli TESEC Mtb Alr	0.0439
O=C(CCNNC(=O)c1ccncc1)NCc1ccccc1 [Nialamide]	E. coli TESEC Mtb Alr	0.144
O=c1oc2ccccc2c(O)c1Cc1c(O)c2ccccc2oc1=O [Dicumarol]	E. coli TESEC Mtb Alr	0.126
O=C(Nc1ccc([N+](=O)[O-])cc1Cl)c1cc(Cl)ccc1O [Niclosamide]	E. coli TESEC Mtb Alr	0.0404
CCOc1ccc2ccccc2c1C(=O)N[C@@H]1C(=O)N2[C@@H]1SC(C)(C)[C@@H]2C(=O)O [Nafcillin sodium salt monohydrate]	E. coli TESEC Mtb Alr	0.138
OC(CCCN1CCCCC1)(c1ccccc1)c1ccccc1 [Diphenidol hydrochloride]	E. coli TESEC Mtb Alr	0.137

Entry CC(C)(C(=O)O)c1ccc(C(O)CCCN2CCC(C(O)(c3ccccc3)c3ccccc3)CC2)cc1 (stereo not drawn) [Fexofenadine HCl] , growth reported as 0.157

Entry CC(C)Cn1cnc2c(N)nc3ccccc3c21 [Imiquimod] , growth reported as 0.158

* * *

- System: E. coli TESEC Alr+ wild-type control
- Assay Procedure: growth (OD600 after 10 h); higher = more growth (less inhibition)
- Protocol Conditions: compound 0.1 mM; raw OD600 reference: median of DMSO wells 0.241, cell-free background 0.041
Counter-ions that a name gives are not always drawn.
This section presents molecules with their documented growth values.
Field format: numeric only.

Please review the entries below; each comes with its answer.
Molecule	Experimental Target	Obs Value
COc1cc(Cc2cnc(N)nc2N)cc(OC)c1OC	E. coli TESEC Alr+ wild-type control	0.0601
CN1CCCN=C1/C=C/c1cccs1 [Pyrantel tartrate]	E. coli TESEC Alr+ wild-type control	0.235
Cc1nc2n(c(=O)c1CCN1CCC(c3noc4cc(F)ccc34)CC1)CCCC2	E. coli TESEC Alr+ wild-type control	0.237

Entry Cc1cc(/C=C/c2ccc3cc(N(C)C)ccc3[n+]2C)c(C)n1-c1ccccc1 [Pyrvinium pamoate] , growth reported as 0.0976

Entry CN1CCN(CCCN2c3ccccc3Sc3ccc(Cl)cc32)CC1 [Prochlorperazine dimaleate] , growth reported as 0.0409

Entry CCOC(=O)n1ccn(C)c1=S , growth reported as 0.239

Entry Nc1ncnc2c1ncn2C1OC(COP(=O)(O)O)C(O)C1O (stereo not drawn) [Adenosine 5'-monophosphate monohydrate] , growth reported as 0.26

Entry CS(=O)(=O)c1ccc([C@@H](O)[C@@H](CF)NC(=O)C(Cl)Cl)cc1 , growth reported as 0.0412

Entry O=c1[nH]c(=O)n(C2CCCO2)cc1F (stereo not drawn) , growth reported as 0.244

Entry C=CC1=C(C(=O)O)N2C(=O)[C@@H](NC(=O)/C(=N\O)c3csc(N)n3)[C@H]2SC1 , growth reported as 0.0391

Entry CN(C)CC/C=C1/c2ccccc2Sc2ccc(Cl)cc21 [Chlorprothixene hydrochloride] , growth reported as 0.0398

Entry Cc1cccc(Nc2ccccc2C(=O)O)c1C , growth reported as 0.134

Entry CCCCc1ccc2[nH]c(NC(=O)OC)nc2c1 , growth reported as 0.244

Entry CC1(C)[C@@H](OC(=O)CCC(=O)O)CC[C@]2(C)[C@H]3C(=O)C=C4[C@@H]5C[C@@](C)(C(=O)O)CC[C@]5(C)CC[C@@]4(C)[C@]3(C)CC[C@@H]12 [Carbenoxolone disodium salt] , growth reported as 0.248

* * *

This section presents compounds with their documented growth values.
- System: E. coli TESEC Mtb Alr
- Assay Procedure: growth (OD600 after 10 h); higher = more growth (less inhibition)
- Protocol Conditions: arabinose 100000 nM; compound 0.1 mM; raw OD600 reference: median of DMSO wells 0.201, cell-free background 0.041
Where a name gives a salt, the structure may show the parent alone.
Field format: numeric only.

Compound	growth
c1ccc(CN(CC2=NCCN2)c2ccccc2)cc1 [Antazoline hydrochloride]	0.194
CC1CC(OC(=O)C(O)c2ccccc2)CC(C)(C)N1C (configuration not stated) [Eucatropine hydrochloride]	0.194
Oc1c(I)cc(Cl)c2cccnc12	0.0461
CC(C(=O)O)c1ccc2c(c1)Cc1cccnc1O2 (configuration not stated)	0.192
CCOc1cc(CC(=O)N[C@@H](CC(C)C)c2ccccc2N2CCCCC2)ccc1C(=O)O [Repaglinide]	0.175

Entry CCN(CC)CCOC(=O)C(Cc1cccc2ccccc12)CC1CCCO1 (configuration not stated) [Nafronyl oxalate] , growth reported as 0.157

Entry CC1CC(OC(=O)c2ccccc2O)CC(C)(C)C1 (configuration not stated) [Homosalate] , growth reported as 0.199

* * *

- Tested on: E. coli TESEC Mtb Alr
- Assay Procedure: growth (OD600 after 10 h); higher = more growth (less inhibition)
- Protocol Conditions: arabinose 10000 nM; compound 0.1 mM; raw OD600 reference: median of DMSO wells 0.264, cell-free background 0.041
Structures can show the parent of a compound that is named as a salt.
This section presents compounds with their documented growth values.
Field format: numeric only.

Entry Cc1cn[nH]c1 [Fomepizole] , growth reported as 0.249

Entry Cc1nc2ccccn2c(=O)c1CCN1CCC(C(=O)c2ccc(F)cc2)CC1 , growth reported as 0.268

Entry COc1ccc2[nH]c([S+]([O-])Cc3ncc(C)c(OC)c3C)nc2c1 (centres undefined) , growth reported as 0.275

Entry CC(=O)NS(=O)(=O)c1ccc(N)cc1 [Sulfacetamide sodic hydrate] , growth reported as 0.261

Entry CC(C(O)c1ccc(O)cc1)N1CCC(Cc2ccccc2)CC1 (centres undefined) [Ifenprodil tartrate] , growth reported as 0.276

Entry CC(CN(C)C)CN1c2ccccc2Sc2ccccc21 (centres undefined) [Trimeprazine tartrate] , growth reported as 0.255

Entry Cc1nccn1CC1CCc2c(c3ccccc3n2C)C1=O (centres undefined) [Ondansetron Hydrochloride] , growth reported as 0.252

Entry CCN1CCCC1CNC(=O)c1cc(S(N)(=O)=O)ccc1OC (centres undefined) [Sulpiride] , growth reported as 0.248

Entry CCn1cc(C(=O)O)c(=O)c2ccc(C)nc21 [Nalidixic acid sodium salt] , growth reported as 0.0394
